Origin of measurements: the supplement of paper PMC10567573

B1: BCL2L13 (parent)
chain: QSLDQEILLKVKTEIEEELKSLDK

Variants of: B1
measurement.description: protein stability index of a GFP-peptide fusion (GPS, HEK-293T) (PSI 1-6); higher = more stable;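 further: lentivirally expressed fusions sorted by FACS into six bins by GFP to DsRed ratio, PSI derived from sequencing read proportions per bin multiplied by bin number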
test.conditions: c terminus: a fixed tail appended
// protein stability index lookup, one value per entry
Note: the reply should be a number with no unit written.

Ask: Using the record for QSLDQEILLKVTTEIEEELKSLDK [K12T] , report its protein stability index.
Reply: 4.73

Ask: Using the record for SSLDQEILLKVKTEIEEELKSLDK [Q1S] , report its protein stability index.
Reply: 4.54

Ask: Using the record for QSLDQEILLKVKTEIAEELKSLDK [E16A] , report its protein stability index.
Reply: 4.6

Ask: Using the record for QSLDQEIGLKVKTEIEEELKSLDK [L8G] , report its protein stability index.
Reply: 5.45

Ask: Using the record for TSLDQEILLKVKTEIEEELKSLDK [Q1T] , report its protein stability index.
Reply: 4.6

Ask: Using the record for QHLDQEILLKVKTEIEEELKSLDK [S2H] , report its protein stability index.
Reply: 4.75

Ask: Using the record for QSLDGEILLKVKTEIEEELKSLDK [Q5G] , report its protein stability index.
Reply: 4.95

Ask: Using the record for NSLDQEILLKVKTEIEEELKSLDK [Q1N] , report its protein stability index.
Reply: 4.98

Ask: Using the record for QSLDQEILLKRKTEIEEELKSLDK [V11R] , report its protein stability index.
Reply: 5.33

Ask: Using the record for QSLDQELLLKVKTEIEEELKSLDK [I7L] , report its protein stability index.
Reply: 5.32

Ask: Using the record for QSLDQEILLKVKCEIEEELKSLDK [T13C] , report its protein stability index.
Reply: 3.28

Ask: Using the record for QSLDQEILLKVKTEIEEELKSLTK [D23T] , report its protein stability index.
Reply: 4.47

Ask: Using the record for QSLDQEILLKVFTEIEEELKSLDK [K12F] , report its protein stability index.
Reply: 3.15

Ask: Using the record for QSLDQEILLKVKTEIEEELVSLDK [K20V] , report its protein stability index.
Reply: 5.11

Ask: Using the record for QSLDQIILLKVKTEIEEELKSLDK [E6I] , report its protein stability index.
Reply: 3.27

Ask: Using the record for QSLDQEILLKTKTEIEEELKSLDK [V11T] , report its protein stability index.
Reply: 5.51

Ask: Using the record for QSLDFEILLKVKTEIEEELKSLDK [Q5F] , report its protein stability index.
Reply: 2.83

Ask: Using the record for QSLDQEILLKVKTYIEEELKSLDK [E14Y] , report its protein stability index.
Reply: 3.16
